Kindly supply the reported MIC values for the records listed here.
# Test system: MRSA SCCmec VT
# assay: Antibacterial activity assay (MIC, broth microdilution)
# Assay type: cell-based, Staphylococcus aureus
# condition details: Staphylococcus aureus, MRSA, agent alone

Input: For CNC(=O)c1cc(Oc2ccc(NC(=O)Nc3ccc(Cl)c(C(F)(F)F)c3)cc2)ccn1 , what is its reported MIC?
Output: > 64 µg/mL

Input: // MIC lookup, key: O=C(Nc1ccc(Cl)c(C(F)(F)F)c1)C(CCCl)C(=O)Nc1ccc(Cl)c(C(F)(F)F)c1
Output: 0.25 µg/mL

Input: For CC/C=C\C/C=C\C/C=C\C/C=C\C/C=C\C/C=C\CCC(=O)O , what is its reported MIC?
Output: 1020 µg/mL

Input: Param item = O=C(Nc1ccc2c(c1)OC(F)(F)O2)Nc1ccc(Cl)c(C(F)(F)F)c1 ; retrieve measured MIC.
Output: 0.125 µg/mL

---

# assay: Antiproliferation assay (MTT)
# Format: cell-based
# condition details: human, HEK-293 cells, DHA 16 mg/L, read-out: CC50 of SC5005
assay metric: CC50 at 24 h (µg/mL)
Write down the numeric answer in µg/mL and omit the unit.

Input: What does the record list as CC50 at 24 h for O=C(Nc1ccc(Cl)c(C(F)(F)F)c1)C(CCCl)C(=O)Nc1ccc(Cl)c(C(F)(F)F)c1 ?
Output: 14

---

# assay: Antiproliferation assay (MTT)
# Assay type: cell-based
# condition details: human, HaCaT keratinocyte cells, DHA 4 mg/L, read-out: CC50 of SC5005
assay metric: CC50 at 24 h (µg/mL)
Form entry: value (µg/mL) — number only.

Input: Consider the molecule O=C(Nc1ccc(Cl)c(C(F)(F)F)c1)C(CCCl)C(=O)Nc1ccc(Cl)c(C(F)(F)F)c1 and give its measured CC50 at 24 h.
Output: 19.5

---

# assay: Antiproliferation assay (MTT)
# Assay type: cell-based
# condition details: human, HaCaT keratinocyte cells, DHA 16 mg/L, read-out: CC50 of SC5005
# Protocol: The murine macrophage cell line RAW264.7 (BCRC) and human cervical epithelioid carcinoma cell line HeLa (BCRC) were maintained in Dulbecco's modified Eagle's medium (DMEM; Gibco-BRL) supplemented with 10% heat-inactivated FBS (Gibco-BRL). […] The effects of SC5005 and DHA on the viability of mammalian cells were assessed using a 3-(4,5-dimethylthiazol-2-yl)-2,5-diphenyl-2H-tetrazolium bromide (MTT) assay in six replicates per treatment group. […]
assay metric: CC50 at 24 h (µg/mL)
Return type: number; implicit unit µg/mL.

Input: Consider the compound shown here: O=C(Nc1ccc(Cl)c(C(F)(F)F)c1)C(CCCl)C(=O)Nc1ccc(Cl)c(C(F)(F)F)c1 What is its recorded CC50 at 24 h?
Output: 18.1

---

# System: S. aureus ATCC29213
# assay: Antibacterial activity assay (MIC, broth microdilution)
# Format: cell-based, Staphylococcus aureus
# condition details: Staphylococcus aureus, ATCC29213, agent alone
Consider the following compounds; for each one, report its MIC.
Put down the number, then write its unit next to it.

Input: Which MIC is listed for CNC(=O)c1cc(Oc2ccc(NC(=O)Nc3ccc(Cl)c(C(F)(F)F)c3)cc2)ccn1 ?
Output: 64 µg/mL

Input: Endpoint output: MIC of O=C(Nc1ccc(Cl)c(C(F)(F)F)c1)C(CCCl)C(=O)Nc1ccc(Cl)c(C(F)(F)F)c1 . Value?
Output: 0.25 µg/mL

Input: Can you look up the measured MIC of O=C(Nc1ccc2c(c1)OC(F)(F)O2)Nc1ccc(Cl)c(C(F)(F)F)c1 for me?
Output: 0.0625 µg/mL

Input: I'd like to know its MIC. The compound in question is CC/C=C\C/C=C\C/C=C\C/C=C\C/C=C\C/C=C\CCC(=O)O
Output: 1020 µg/mL
